tested on: HIV-1 isolate: 89.6; assay: p24 secretion of HIV-1-infected PBMCs; format: cell-based; details: Human immunodeficiency virus 1, PBMC; free, three rounds of treatment

{"molecular.string": "CCCCN1C[C@H](O)[C@@H](O)[C@H](O)[C@H]1CO", "target.under.test": "HIV-1 isolate: 89.6", "IC50 (µM)": 250}

----------
test system: HIV-1 primary isolates; test: p24 secretion of HIV-1-infected PBMCs, eight primary isolates; type: cell-based; details: Human immunodeficiency virus 1, PBMC; free, three rounds of treatment, six isolates
metric.name: IC50 (µM)

{"compound": "CCCCN1C[C@H](O)[C@@H](O)[C@H](O)[C@H]1CO [NB-DNJ, N-butyl-1,5-dideoxy-1,5-imino-D-glucitol]", "metric.name": "IC50", "measured.result": 400}
